Please provide measured apparent KD of MS2 coat protein for the entries that follow.
test system: MS2 coat protein; experiment: apparent KD of MS2 coat protein; designed switch direction (-1 OFF switch, 1 ON switch): 1; higher = weaker reporter binding; conditions: Eterna round: R95; input ligand: microRNA oligo, concentration not stated
Give your result in nM as a bare value.

// sample CCGAUGUGGGUACAGGAUAUGUGGGCCUCCACAUGAGGAUCACCCAUGUCGGAGGCAAAGCGGCUACAGAAGGGUGCGAGCUCGA [Xeanza] (puzzle: Same State 2) , its apparent KD of MS2 coat protein was 9.28

apparent KD of MS2 coat protein measured on AAAAGAAGAAUGUAGGAUAUACAAAAGAACACAUGAGGAUCACCCAUGUGAGCCUAAUGUAAGAAGUAGAAGGACAAAGAGAAAA [Default title] (puzzle: Same State 2) = 62

Data point: CUACUACAUGAGGAUCACCCAUGUUAUAGUGAUGCAGGAUAUGUGUGACCAGAAGAUGAAACAGAAGGGCAAAGAA [JR_SS!_Sub001] (puzzle: Same State 1) ; apparent KD of MS2 coat protein = 33.1

----------
test system: MS2 coat protein; assay: apparent KD of MS2 coat protein; designed switch direction (-1 OFF switch, 1 ON switch): -1; higher = weaker reporter binding; details: input ligand: microRNA oligo, concentration not stated
Measurement Label: apparent KD of MS2 coat protein (nM)
Give a bare numeral; the unit nM is implied.

Form: sequence = AUUUAAUUUAGCGAGAUCACAUGAGGAUCACCCAUGUAUAUAUAGGAUAUCAGCUCGAUUAGAGCUGAGAAGGAUAUAUACCGC [ExNG3/7-A1] (Eterna round: R96, puzzle: Exclusion NG 3) ; apparent KD of MS2 coat protein = 98.7

// apparent KD of MS2 coat protein value for GCAGCAUAGUCGGAAUACGACAUACAUGAGGAUCACCCAUGUCAGGAUAUGGUCUGGAUUACAGGCCAGAAGGGACGAAGCUGC [Eli exng3 - 006] (Eterna round: R96, puzzle: Exclusion NG 3) : 17.6

Record UUGCAGUCGUCAGGAUAUAGUAUUACGGCCUUUUAUUUCUUCAUACAUGAGGAUCACCCAUGUCGCUAGAAGGGAUUAUCGAUU [salish99_ExNG2_r04_105] (Eterna round: R96, puzzle: Exclusion NG 2) . Reported apparent KD of MS2 coat protein: 14.2

----------
tested on: MS2 coat protein; test: apparent KD of MS2 coat protein; designed switch direction (-1 OFF switch, 1 ON switch): -1; higher = weaker reporter binding; conditions: Eterna round: R95; input ligand: none
Task for the reader: assign each of the following sequences its reported apparent KD of MS2 coat protein.
Number only, in nM; omit the unit.

Measured apparent KD of MS2 coat protein (MS2 coat protein), entry AAAAAGACAGGAUAUACAUGAGGAUCACCCAUGUGAAACAAAAUAAAAUAAAAUAAAAGUAGAAGGGUCAAAAA [Exclusion 3 #2] (puzzle: Exclusion 3) : 31.7

Value (apparent KD of MS2 coat protein, MS2 coat protein) for record GAGAAGGUAGGAUAUACGAAGAAAAAGGGUAGAAUAAUAACACAUGAGGAUCACCCAUGUAGAAGGACCAAGAG [Mat - Exclusion 2 - Mod of my Tesla design - D19] (puzzle: Exclusion 2) = 20.4

# apparent KD of MS2 coat protein measured on MS2 coat protein for item GUGAAGUGAGGAUAUACGAGAGAGGCUGAACCUGGAGAGAAGUAGAAGGCACAUGAGGAUCACCCAUGUAAGGA [JR_Exclu4_Sub020] (puzzle: Exclusion 4) = 34.4

MS2 coat protein assay, sequence AAGAAACAUGAGGAUCACCCAUGUGAGGAUAUGAGUAAGAAAAGAAAAGAAAGAAGAAUCAGAAGGCACAAAGG [salish99-ex1_r3_048] (puzzle: Exclusion 1) , recorded apparent KD of MS2 coat protein = 38.3

Here UUUUUCAAGCCAGAUCCUCACAUGAGGAUCACCCAUGUGCUCGUCUGUUUUCGCACUAUCACGUUUGUGAUAGUGCU [Level Boss var2-11] (puzzle: Sensor v3, turn-off variant 1) was tested on MS2 coat protein, and its apparent KD of MS2 coat protein came to 307

----------
tested on: MS2 coat protein; experiment: apparent KD of MS2 coat protein; designed switch direction (-1 OFF switch, 1 ON switch): -1; higher = weaker reporter binding; settings: input ligand: microRNA oligo, concentration not stated
For each record, write down the corresponding apparent KD of MS2 coat protein.
Express your answer in nM, writing the number without its unit.

apparent KD of MS2 coat protein reading for UUUUUAUAUGAAGGAUAUACUUAACAUGAGGAUCACCCAUGUGGUGUUGUGAGUGAGUGAGUUUAGUAGAAGGUCAAUUAUUUU [JMF's solution 6] (Eterna round: R96, puzzle: Exclusion NG 2) : 246

Quick note, apparent KD of MS2 coat protein for ACUCCUCCUGUUAGGAUAUGCAUCGGGCUUCCGCAGCAGAAGGAACAUGAGGAUCACCCAUGUCAAAUAAAAUC [Inxebexe] (Eterna round: R96, puzzle: Brourd's mod of Exclusion 4) landed at 20.7

For this sequence ( AAGGGUGCCCUUAGAAAGACAUGAGGAUCACCCAUGUAGACUGAGGAUAUCCACUCCUAAGGACCGGAGAAGGCAGUGUAAUGC [Qubion] (Eterna round: R96, puzzle: Exclusion NG 3) ), measured apparent KD of MS2 coat protein is 13.8

----------
Would you kindly list apparent KD of K4 kissing-loop reporter for each of these sequences?
tested on: K4 kissing-loop RNA reporter; test: apparent KD of K4 kissing-loop reporter; higher = weaker reporter binding; settings: Eterna round: R107; input ligand: none;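 note: bound reporter read as fluorescence of individual clusters on recovered sequencing chips by microscopy, with normalized cluster intensities fitted with a binding model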
Dear colleague, please return just the value in nM, with no unit written.

Record UAGUAGCUCUCGGCCGCCACUCCUCAGUGAUGUUGAGAUAUUAAGAGCCAAUUGGCUCAUAUAAAGAGGACCGGGAGAGCUACAU [AK4.2 SS Tryptophan B] , field apparent KD of K4 kissing-loop reporter: 365

Field apparent KD of K4 kissing-loop reporter (entry UAUCGAGUGAUGUUCGAUGUAGUCCAUUCAGAGGAUAUAGGAUUGACUAGAAGGCUGAAACCUUCUUCGAGUGAUGUUCGAGGAU [Same State FMN A GF4] ) reads 58.9

Short answer for CCUAUCUCAUACGAUACCAGUCAAUUAAAUUUUAUAAAUGCCAUCACCGAGUGAUGUUCGGACCCUUGGCAGCGUAUGGGAUAGG [Ex Theophylline B K4 2] : apparent KD of K4 kissing-loop reporter was 198

In plain terms, `CCGCUGUACUGCAUUAAGUGAUGUUUAGUGCAGGAUAUCUGGAAACAGAGAAGGGCAUGUACUCGACUUAGCCACUACAGCGGUU` has a documented apparent KD of K4 kissing-loop reporter of 142

Sure, the documented apparent KD of K4 kissing-loop reporter for GUGCAGUGAUGUUGCACGAGGAAAGACGAUACCAGCCGUAAAUAAGGCCCUUGGCAGCGUGGACUAGCAUAAAGUAUGCUAGCCU [Isenaonle] is 123

Record UUCAGUGAUGUUGAACACUGUUGUAUAAACUAGGAUAUGCUGAUAAGCAGAAGGAGUGAUGUUCCGUUCAUCAUCAGAAUUAAAU [KL-XFMN-A3] . Reported apparent KD of K4 kissing-loop reporter: 360

GET /value?item= UGUUGAGUGAUGUUCGAUGUAGUUCAUUCAGAGGAUAUAGGGUGGGCUAGAAGGCUGAAAAGUGCUUCGAGUGAUGUUCGAAGAU [Exclusion FMN A GF 7] &field=apparent KD of K4 kissing-loop reporter returns 99.3

What the record says about UUGAUAUGAUAGUAUCUUGUUUGAUAAAGGCAGGAUAUCGUAUAUUUGAGAAGGGCCAUUAUAUGCAGUGAUGUUGCAAAUAAGU [Exclusion FMN A Gf 25] : apparent KD of K4 kissing-loop reporter is 41.3

Looking up UGUAUGUGAUUUGAUACCAGACCAGCUGGUGGUGUAUGAGUGAUGUUCAUGUUGGUUUGGGUCCCUUGGCAGCAAAUCGCAUACU [KL-SSTheoB30] , I see its apparent KD of K4 kissing-loop reporter listed as 11.8

Record summary for ACGUAGUACGUAGGAUAUCAGAGAUCAGUUAGUGAGAUCGAGUGAUGUUCGAUCAUGUGUUCAGUUUGAGAAGGAUGUAGUAGGA [KL-SSFMN-B5] : reported apparent KD of K4 kissing-loop reporter = 355

Given item ACAGUUGCUAGUGAUACCAGACUAGCACUACGUAAUAUGUCAAGUGAUGUUUGACAACUAGUCCCUUGGCAGCGCGAUACGACUG [#11 K4 Theophylline B Same State] , the value recorded as its apparent KD of K4 kissing-loop reporter is 259

The sequence `GGUAGCAUGGCGGCCGCCACUUUGCACCUUUUCUUUUCUUUUGGUGCUUCACGAGUGAUGUUCGUAAGGACCGGGCCAUGCUACC` showed apparent KD of K4 kissing-loop reporter equal to 261

Form: sequence = UUGAGCCUGACGCAAGUCAGGCUCUGCGAGCGAGGACCGGUACGGCCGCCACUCGGUGCAGUGAUGUUGCAUGGCCGCAAGGCCG [#2 Exclusion - Tryptophan A Attempt #17 (HarryS)] ; apparent KD of K4 kissing-loop reporter = 318

Consider UGAUUGCCAGUGAUGUUGGCAUAUACUGAAGGAGCGCGUGAAAACGCAGGUAGGUCGCAGUUCCUUGCCAAUUGAUCGAAAGAUC [KL-XArg-A1] . Its measured apparent KD of K4 kissing-loop reporter is 137

apparent KD of K4 kissing-loop reporter in this record for UAGUCGCUAGUUAGCGACAACGGGUCAGAUACCAGACUAGCGAUAGUCCCUUGGCAGCUGAAGUUCAGUGAUGUUGAACGGAUUA [Theo A SS t10] : 265

GET /value?item= UGUACAUGUCAGCGAGUGAUGUUCGACGAUACCAGACUCGAUAGAGUCCCUUGGCAGCGUAACGCAUGCCAAACUGGCAUGUACU [#SwitchBubble 9 #K4Early] &field=apparent KD of K4 kissing-loop reporter returns 1120

Memo: CAAUGAGUAUAAGAUGAUAUCAUAACAGAAGGAGCGAGUGAUAACUCAGGUAGGUCGCUGAAUUUAUCGAGUGAUGUUCGAUAGA [whbob_SS_Arginine_A_sa117] , reported apparent KD of K4 kissing-loop reporter: 226

Data point: UCUGGUAUAUCUGAUACCAGAGAAUAGAAUCAAUUGAAUAUGGAGUGAUGUUCCAUAAAACUCCCUUGGCAGCAGAUAAUCAUAU [Same State Theophylline B GF 22] ; apparent KD of K4 kissing-loop reporter = 125

Looking up GCGCGUCAUGUCAGCGGUGACACUGUCGAUACCAGCGCCGCAAGGCGCCCUUGGCAGCGACGUGCUGGAGUGAUGUUCCAGCGUC [#2 Exclusion - Theophylline A Attempt #22 (HarryS)] , I see its apparent KD of K4 kissing-loop reporter listed as 145

According to the records, this sequence UUAGUAUAGAGAGGAUAUACCUUCCAGUGAUGUUGGAUAGAUGAAUUUAAUCAUCAAGCAUAGCUUGUAGAAGGCUCUAUACAUU [AK1 SS FMN B] displays apparent KD of K4 kissing-loop reporter of 535

Query UGAGUGAUGUUCAAGGACUAGAUCUAAAUAAAGGAUAUAGCAUACGCUAGAAGGUUAAAAUUUCUGGAUCCCAGUUUAAACCUUU [theeternabot_sameState_KL_FMN_A_49] yields apparent KD of K4 kissing-loop reporter of 222

The recorded apparent KD of K4 kissing-loop reporter for UGGCCUUAAAUUCUAGGAUUAGCGACGUACAAGGAUAUUCGUCAUCGAAGAAGGUGUAGCUAGGAGAGUGAUGUUUUCCAUCGCC [theeternabot_sameState_KL_FMN_A_15] is 549

sequence UGUAUAGUCAGAAGGAGCGUGAACGAUCGAGAAUCGAUCAGCCAGUGAUGUUGGCAGGAAUCACAGGUAGGUCGCUGACUGUACA [Arg B SS t3] , apparent KD of K4 kissing-loop reporter observed: 258
